// data source = patent US10485235B2

Tested on: pigweed (Amaranthus retroflexus)
protocol-description: Test A preemergence, pigweed
Assay type: in vivo
conditions-used: Amaranthus retroflexus, pre-emergence, 240 h; Preemergence, 31 g ai/ha; 0 to 100 scale (0 no effect, 100 complete control); read-out: Plant response rating, Pigweed
endpoint-name: pest or weed control at 31 g/ha (%)
Report only the number, with the unit % understood.

entry-smiles: N#Cc1cccc(Oc2ncc(F)cn2)c1OCC(F)(F)F
pest or weed control at 31 g/ha (%): 100

What the record says about N#Cc1cccc(Oc2ncc(Cl)cn2)c1OCCC(F)(F)F : pest or weed control at 31 g/ha is 100

What the record says about FC(F)(F)COc1c(I)cccc1Oc1ncc(Cl)cn1 : pest or weed control at 31 g/ha is 50

What the record says about N#Cc1cccc(Oc2ncc(Cl)cn2)c1OCCCC(F)(F)F : pest or weed control at 31 g/ha is 90

What the record says about FC(F)(F)COc1c(Cl)cccc1Oc1ncc(Cl)cn1 : pest or weed control at 31 g/ha is 0

---

Tested on: pigweed (Amaranthus retroflexus)
protocol-description: Test A preemergence, pigweed
Type: in vivo
conditions-used: Preemergence, 31 g ai/ha; 0 to 100 scale (0 no effect, 100 complete control)
endpoint-name: Plant response rating, Pigweed
The answer should be a number; do not append a unit.

What the record says about FC(F)(F)C(F)(F)CCCOc1c(Br)cccc1Oc1ncc(Cl)cn1 [Compound 49] : Plant response rating, Pigweed is 0

What the record says about N#Cc1cccc(Oc2ncc(Cl)cn2)c1OCCCCC(F)(F)F [Compound 32] : Plant response rating, Pigweed is 100

What the record says about N#Cc1cccc(Oc2ncc(Cl)cn2)c1OCc1ccc(Cl)cn1 [Compound 6] : Plant response rating, Pigweed is 10

What the record says about FC(F)(F)CCCOc1c(Oc2ncc(Cl)cn2)cccc1C(F)(F)F [Compound 54] : Plant response rating, Pigweed is 20

What the record says about Cl/C=C/COc1c(I)cccc1Oc1ncc(Cl)cn1 [Compound 68] : Plant response rating, Pigweed is 0

What the record says about Cc1cccc(Oc2ncc(Cl)cn2)c1OCCCF [Compound 57] : Plant response rating, Pigweed is 0

What the record says about N#CCCCOc1c(C#N)cccc1Oc1ncc(Cl)cn1 [Compound 22] : Plant response rating, Pigweed is 80

What the record says about N#Cc1cccc(Oc2ncc(F)cn2)c1OCCCF [Compound 30] : Plant response rating, Pigweed is 50

---

Test system: ducksalad (Heteranthera limosa)
protocol-description: Test B flooded paddy test, ducksalad
Type: in vivo
conditions-used: Heteranthera limosa; 250 g ai/ha, Flood; visual rating after 13 to 15 days; scale 0 to 100, 0 is no effect, 100 is complete control; read-out: Plant response rating, Ducksalad
In plain terms, low pest or weed control at 250 g/ha, meaning strictly below 70%, gives class 1, and everything else gives class 0.

Example results:
entry-smiles: N#Cc1cccc(Oc2ncc(Cl)cn2)c1OCCC(F)(F)F
experimental-system: ducksalad (Heteranthera limosa)
label-value: class 0
//
entry-smiles: CCCCOc1c(Br)cccc1Oc1ncc(Cl)cn1
experimental-system: ducksalad (Heteranthera limosa)
label-value: class 1
//
entry-smiles: Fc1cccc(Oc2ncc(Cl)cn2)c1OCC(F)(F)F
experimental-system: ducksalad (Heteranthera limosa)
label-value: class 1
//
entry-smiles: FC(F)C(F)(F)COc1c(Br)cccc1Oc1ncc(Cl)cn1
experimental-system: ducksalad (Heteranthera limosa)
label-value: class 1

# ---- query compound ----
Prompt: Lab log: compare recorded pest or weed control at 250 g/ha with 70%; is it strictly lower for N#Cc1cccc(Oc2ncc(F)cn2)c1OCCCC(F)(F)F ?
Completion: class 0

---

Listed next: entries and their corresponding Plant response rating, Sedge, Umbrella.
System: sedge, umbrella (small-flower umbrella sedge, Cyperus difformis)
protocol-description: Test B flooded paddy test, umbrella sedge
Assay type: in vivo
conditions-used: 250 g ai/ha, Flood; visual rating after 13 to 15 days; scale 0 to 100, 0 is no effect, 100 is complete control
The answer should be a number; do not append a unit.

compound: CCCOc1c(C#N)cccc1Oc1ncc(Cl)cn1 [Compound 50]
numeric-value: 60

compound: CC(C)CCCOc1c(Br)cccc1Oc1ncc(Cl)cn1 [Compound 11]
numeric-value: 0

compound: Fc1cccc(Oc2ncc(Cl)cn2)c1OCCC(F)(F)F [Compound 29]
numeric-value: 0

What the record says about FC(F)(F)/C=C/COc1c(Cl)cccc1Oc1ncc(Cl)cn1 [Compound 47] : Plant response rating, Sedge, Umbrella is 100

What the record says about Cl/C=C/COc1c(I)cccc1Oc1ncc(Cl)cn1 [Compound 68] : Plant response rating, Sedge, Umbrella is 100

---

Test system: barnyardgrass (Echinochloa crus-galli)
protocol-description: Test A postemergence, barnyardgrass
Type: in vivo
conditions-used: 125 g ai/ha, postemergence; 0 to 100 scale, 0 is no effect, 100 is complete control; approximately 10 days
Response key: 1 means Plant response rating, Barnyardgrass >= 20; -1 means Plant response rating, Barnyardgrass < 20.

Example results:
entry-smiles: O=C(COc1c(Br)cccc1Oc1ncc(Cl)cn1)C(F)(F)C(F)(F)F
label-value: -1
//
entry-smiles: N#Cc1cccc(Oc2ncc(F)cn2)c1OC/C=C/C(F)(F)F
label-value: 1
//
entry-smiles: FCCCOc1c(Cl)cccc1Oc1ncc(Cl)cn1
label-value: -1
//
entry-smiles: N#Cc1cccc(Oc2ncc(F)cn2)c1OCCCF
label-value: -1
//
entry-smiles: FC(F)(F)CCOc1c(I)cccc1Oc1ncc(Cl)cn1
label-value: 1
//
entry-smiles: N#Cc1cccc(Oc2ncc(Cl)cn2)c1OCCCF
label-value: 1
//
entry-smiles: FC(F)C(F)(F)C(F)(F)C(F)(F)COc1c(Br)cccc1Oc1ncc(Cl)cn1
label-value: 1
//
entry-smiles: FC(F)(F)/C=C/COc1c(Cl)cccc1Oc1ncc(Cl)cn1
label-value: 1
//
entry-smiles: FC(F)(F)C(F)(F)CCCOc1c(Br)cccc1Oc1ncc(Cl)cn1
label-value: -1
//
entry-smiles: N#Cc1cccc(Oc2ncc(Cl)cn2)c1OCc1ccc(Cl)cn1
label-value: -1

Prompt: Answer whether Plant response rating, Barnyardgrass of N#Cc1cccc(Oc2ncc(Cl)cn2)c1OCCCCC(F)(F)F is greater than or equal to 20.
Completion: 1

Prompt: Answer whether Plant response rating, Barnyardgrass of FC(F)(F)CCCOc1c(Br)cccc1Oc1ncc(Cl)cn1 is greater than or equal to 20.
Completion: 1

Prompt: Answer whether Plant response rating, Barnyardgrass of N#Cc1cccc(Oc2ncc(Cl)cn2)c1OCc1ccc(C(F)(F)F)cc1 is greater than or equal to 20.
Completion: -1

Prompt: Answer whether Plant response rating, Barnyardgrass of CCCCCOc1c(C#N)cccc1Oc1ncc(Cl)cn1 is greater than or equal to 20.
Completion: 1

Prompt: Answer whether Plant response rating, Barnyardgrass of FC(F)(F)CCCCOc1c(Br)cccc1Oc1ncc(Cl)cn1 is greater than or equal to 20.
Completion: 1

---

Listed next: entries and their corresponding Plant response rating, Kochia.
Test system: kochia (Kochia scoparia)
protocol-description: Test A postemergence, kochia
Format: in vivo
conditions-used: 125 g ai/ha, postemergence; 0 to 100 scale, 0 is no effect, 100 is complete control; approximately 10 days
The answer should be a number; do not append a unit.

Below, each entry is followed by its recorded Plant response rating, Kochia result.
molecule: N#Cc1cccc(Oc2ncc(F)cn2)c1OC/C=C/Cl [Compound 36]
numeric-value: 90

molecule: CCCOc1c(C#N)cccc1Oc1ncc(Cl)cn1 [Compound 50]
numeric-value: 80

Read the next record carefully.
What the record says about FC(F)(F)CCCOc1c(Cl)cccc1Oc1ncc(Cl)cn1 [Compound 46] : Plant response rating, Kochia is 80

---

Listed next: entries and their corresponding Plant response rating, Galium.
Tested on: galium (catchweed bedstraw, Galium aparine)
protocol-description: Test A postemergence, galium
Type: in vivo
conditions-used: Postemergence, 31 g ai/ha; 0 to 100 scale (0 no effect, 100 complete control)
The answer should be a number; do not append a unit.

entry-smiles: N#Cc1cccc(Oc2ncc(Cl)cn2)c1OCC(=O)C(F)(F)C(F)(F)F
Plant response rating, Galium: 0

entry-smiles: CCC(=O)COc1c(Br)cccc1Oc1ncc(Cl)cn1
Plant response rating, Galium: 10

entry-smiles: CCC(=O)COc1c(C#N)cccc1Oc1ncc(Cl)cn1
Plant response rating, Galium: 10

entry-smiles: O=C(COc1c(Br)cccc1Oc1ncc(Cl)cn1)C(F)(F)C(F)(F)F
Plant response rating, Galium: 10

What the record says about Cl/C=C/COc1c(I)cccc1Oc1ncc(Cl)cn1 : Plant response rating, Galium is 50

What the record says about N#CCCCOc1c(I)cccc1Oc1ncc(Cl)cn1 : Plant response rating, Galium is 30

---

Tested on: ducksalad (Heteranthera limosa)
protocol-description: Test B flooded paddy test, ducksalad
Type: in vivo
conditions-used: 250 g ai/ha, Flood; visual rating after 13 to 15 days; scale 0 to 100, 0 is no effect, 100 is complete control
Response key: Fulfilled means Plant response rating, Ducksalad >= 80; Not fulfilled means Plant response rating, Ducksalad < 80.

Example results:
molecule: N#Cc1cccc(Oc2ncc(F)cn2)c1OC/C=C/C(F)(F)F [Compound 39]
label-value: Not fulfilled

molecule: N#Cc1cccc(Oc2ncc(Cl)cn2)c1OCc1cccc(Cl)c1 [Compound 21]
label-value: Not fulfilled

molecule: FC(F)(F)CCCOc1c(Oc2ncc(Cl)cn2)cccc1C(F)(F)F [Compound 54]
label-value: Fulfilled

molecule: Cc1cccc(Oc2ncc(Cl)cn2)c1OCCCF [Compound 57]
label-value: Not fulfilled

molecule: N#CCCCOc1c(C#N)cccc1Oc1ncc(Cl)cn1 [Compound 22]
label-value: Not fulfilled

molecule: N#Cc1cccc(Oc2ncc(Cl)cn2)c1OCc1ccc(Cl)cn1 [Compound 6]
label-value: Not fulfilled

molecule: Cl/C=C/COc1c(I)cccc1Oc1ncc(Cl)cn1 [Compound 68]
label-value: Fulfilled

molecule: FC(F)=C(F)CCOc1c(Br)cccc1Oc1ncc(Cl)cn1 [Compound 38]
label-value: Not fulfilled

Prompt: Answer whether Plant response rating, Ducksalad of N#Cc1cccc(Oc2ncc(Cl)cn2)c1OCCCC(F)(F)F [Compound 72] is greater than or equal to 80.
Completion: Fulfilled

Prompt: Answer whether Plant response rating, Ducksalad of CCC(=O)COc1c(Br)cccc1Oc1ncc(Cl)cn1 [Compound 76] is greater than or equal to 80.
Completion: Fulfilled

Prompt: Answer whether Plant response rating, Ducksalad of N#Cc1cccc(Oc2ncc(F)cn2)c1OCCC(F)(F)F [Compound 40] is greater than or equal to 80.
Completion: Not fulfilled

Prompt: Answer whether Plant response rating, Ducksalad of CCCOc1c(C#N)cccc1Oc1ncc(Cl)cn1 [Compound 50] is greater than or equal to 80.
Completion: Not fulfilled

Prompt: Answer whether Plant response rating, Ducksalad of FC(F)(F)/C=C/COc1c(Cl)cccc1Oc1ncc(Cl)cn1 [Compound 47] is greater than or equal to 80.
Completion: Fulfilled

Prompt: Answer whether Plant response rating, Ducksalad of FC(F)(F)c1ccc(COc2c(Br)cccc2Oc2ncc(Cl)cn2)cc1 [Compound 19] is greater than or equal to 80.
Completion: Not fulfilled
